target: Cellular tumor antigen p53 (Homo sapiens) (UniProt P04637); assay: nuclear p53 accumulation, HPV+ cells – imaging, p53-positive nuclei imaging, 24 h, 48 h (AID 1508601); settings: 24/48 h, measured here: p53 positive nuclei at 24 h, Library stock concentration: 2 mM, stronger effect = higher value
Sequence (P04637 whole entry, looked up): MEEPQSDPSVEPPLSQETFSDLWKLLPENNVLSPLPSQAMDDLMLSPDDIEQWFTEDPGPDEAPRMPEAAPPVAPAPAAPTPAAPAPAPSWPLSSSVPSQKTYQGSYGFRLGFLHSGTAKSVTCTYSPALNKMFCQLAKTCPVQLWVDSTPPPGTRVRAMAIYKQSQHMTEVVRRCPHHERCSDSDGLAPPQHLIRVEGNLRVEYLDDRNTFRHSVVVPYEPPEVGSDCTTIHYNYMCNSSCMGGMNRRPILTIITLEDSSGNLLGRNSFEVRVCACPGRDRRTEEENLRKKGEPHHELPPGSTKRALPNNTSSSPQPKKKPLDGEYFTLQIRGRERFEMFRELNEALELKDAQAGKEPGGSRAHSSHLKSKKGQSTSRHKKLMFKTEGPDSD
The whole screen tested about 5,700 compounds, of which about 85 (1%) were called active. The sample holds actives, similar compounds and a random draw of the others, so the mix is not that of the screen.
MEASUREMENT TYPE: p53-positive nuclei, normalised (%)
The figure you give is taken to be in %; do not add the unit.

Previously resolved entries follow.
>>> value_observed("O=C1SC(=Cc2ccc(OCc3cccc(B(O)O)c3)cc2)C(=O)N1Cc1ccc(F)cc1")
0.123
>>> value_observed("C#C[C@]1(O)CC[C@@H]2[C@@H]3CCc4cc(O)ccc4[C@@H]3CC[C@@]21C")
0.0711
>>> value_observed("CC(=O)NC(CC(C)C)C(=O)NC(CC(C)C)C(=O)NC(C=O)CCCN=C(N)N (stereo not given)")
0.0943

// p53-positive nuclei, normalised lookup, key: Nc1ccccc1NC(=O)c1ccc(CNc2nccc(-c3cccnc3)n2)cc1 0.551

* * *

experiment: nuclear p53 accumulation, HPV+ cells – imaging, p53-positive nuclei imaging, 24 h, 48 h (AID 1508601); conditions: 24/48 h, measured here: cell number at 48 h, Library stock concentration: 3.33 mM
Hit rate of the full screen: of about 5,700 compounds, about 85 (1%) were called active. The full list was thinned out, with actives kept by preference.
MEASUREMENT TYPE: nuclei count, normalised (%)
Numeric only. Scale: %

>>> value_observed("CN1CCC(c2c(O)cc(O)c3c(=O)cc(-c4ccccc4Cl)oc23)C1CO (stereo not given)")
26.2

Requested field: nuclei count, normalised. Item: CCCC1CC(C(=O)NC(C(C)O)[C@@H]2OC(SC)C(O)C(O)C2O)N(C)C1 (stereo not given in full) 102

Recorded nuclei count, normalised of O=C(CCCCCCC(=O)Nc1ccccc1)NO , please. 74.5

Returns the measured nuclei count, normalised for the input compound. Input: CN1CC[C@H](c2c(O)cc(O)c3c(=O)cc(-c4ccccc4Cl)oc23)C(O)C1 (stereo not given in full) 16

I have this compound here, O=C(O)c1ccc(C=C2SC(=S)N(c3cccc(C(F)(F)F)c3)C2=O)cc1 , and I need its recorded nuclei count, normalised. 78.4

* * *

biological target: Cellular tumor antigen p53 (Homo sapiens); assay: nuclear p53 accumulation, HPV+ cells – imaging, p53-positive nuclei imaging, 24 h, 48 h (AID 1508601); settings: 24/48 h, Library stock concentration: 2 mM, stronger effect = higher value
Out of some 5,700 compounds screened, about 85 (1%) were called active. This is one part of a sample in which actives are shown more often than they occur.
Let's look at some compounds and their measured p53-positive nuclei, normalised.
Please reply with the bare figure in % and do not write the unit itself.

# query: p53-positive nuclei, normalised of entry O=Nc1c(-c2c(O)[nH]c3cc(Br)ccc23)[nH]c2ccccc12 4.32

Give its p53-positive nuclei, normalised value. Item: CS(=O)(=O)c1ccc(C(CC2CCCC2)C(=O)Nc2nccs2)cc1 (centres undefined) 0.01

Give its p53-positive nuclei, normalised value. Item: COC(=O)C=CC(=O)N(O)CCCCNCc1ccc(COC(=O)Nc2cccc3ccccc23)cc1 -0.616

Any idea what its p53-positive nuclei, normalised is? The compound is O=C(O)CCCC=CCC1C(O)CC(O)C1C=CC(O)COc1cccc(Cl)c1 (centres undefined) 0.08

Would you kindly share the measured p53-positive nuclei, normalised for CC(C)(CO)c1cc2cc(NC(=O)C3(c4ccc5c(c4)OC(F)(F)O5)CC3)c(F)cc2n1CC(O)CO (centres undefined) ? -0.0537

Endpoint output: p53-positive nuclei, normalised of C=CC(=O)N1CCc2ccc(-n3c(=O)ccc4cnc5ccc(-c6cnn(C)c6)cc5c43)cc21 . Value? -0.00288

For COC(=O)c1c(NC(=O)CC2SC(=N)NC2=O)sc(C)c1C (centres undefined) , what is its reported p53-positive nuclei, normalised? -0.195

So what does the record say about p53-positive nuclei, normalised for COc1ccc(Cn2ccc3ccc(C(=O)NO)cc32)cc1 ? -0.164

I have this compound here, CC(C)CC(NC(=O)C(O)C(N)Cc1ccccc1)C(=O)O (centres undefined) , and I need its recorded p53-positive nuclei, normalised. -0.0155
